FYI, the data here is from the supplement of paper PMC5998384.

test system: HeLa Kyoto; assay: thermal stability score vs G1/S (z-score of summed log2 fold changes over temperatures); higher = more thermally stable than in G1/S; details: cell cycle stage: early G1 (4.5 h after nocodazole release)
# thermal stability score values compiled below
Just the number, please, no unit attached.

Task: Which measured thermal stability score value corresponds to ARHGEF5 ?
Result: 0.0128

Task: One more substance: MEPRAVGVSKQDIREQIWGYMESQNLADFPRPVHHRIPNFKGSYLACQNIKDLDVFARTQEVKVDPDKPLEGVRLLVLQSKKTLLVPTPRLRTGLFNKITPPPGATKDILRKCATSQGVRNYSVPIGLDSRVLVDLVVVGSVAVSEKGWRIGKGEGYADLEYAMMVSMGAVSKETPVVTIVHDCQVVDIPEELVEEHDITVDYILTPTRVIATGCKRPKPMGITWFKISLEMMEKIPILRSLRAREQQAGKDVTLQGEHQHLPEPGCQQTVPLSVGRRPPDTPGPETNSMEAAPGSPPGEGAPLAADVYVGNLPGDARVSDLKRALRELGSVPLRLTWQGPRRRAFLHYPDSAAAQQAVSCLQGLRLGTDTLRVALARQQRDK [MTHFSD]
Result: -0.334

Task: One more substance: MGHRFLRGLLTLLLPPPPLYTRHRMLGPESVPPPKRSRSKLMAPPRIGTHNGTFHCDEALACALLRLLPEYRDAEIVRTRDPEKLASCDIVVDVGGEYDPRRHRYDHHQRSFTETMSSLSPGKPWQTKLSSAGLIYLHFGHKLLAQLLGTSEEDSMVGTLYDKMYENFVEEVDAVDNGISQWAEGEPRYALTTTLSARVARLNPTWNHPDQDTEAGFKRAMDLVQEEFLQRLDFYQHSWLPARALVEEALAQRFQVDPSGEIVELAKGACPWKEHLYHLESGLSPPVAIFFVIYTDQAGQWRIQCVPKEPHSFQSRLPLPEPWRGLRDEALDQVSGIPGCIFVHASGFIGGHRTREGALSMARATLAQRSYLPQIS [C12ORF10]
Result: -0.294

----------
system: HeLa Kyoto; test: melting temperature (median over replicates), in situ; higher = more thermally stable; settings: cell cycle stage: G1/S
# melting temperature values compiled below
// note: answer is a bare numeric in °C

MDDKELIEYFKSQMKEDPDMASAVAAIRTLLEFLKRDKGETIQGLRANLTSAIETLCGVDSSVAVSSGGELFLRFISLASLEYSDYSKCKKIMIERGELFLRRISLSRNKIADLCHTFIKDGATILTHAYSRVVLRVLEAAVAAKKRFSVYVTESQPDLSGKKMAKALCHLNVPVTVVLDAAVGYIMEKADLVIVGAEGVVENGGIINKIGTNQMAVCAKAQNKPFYVVAESFKFVRLFPLNQQDVPDKFKYKADTLKVAQTGQDLKEEHPWVDYTAPSLITLLFTDLGVLTPSAVSDELIKLYL [EIF2B1]    57.1
MDLFGDLPEPERSPRPAAGKEAQKGPLLFDDLPPASSTDSGSGGPLLFDDLPPASSGDSGSLATSISQMVKTEGKGAKRKTSEEEKNGSEELVEKKVCKASSVIFGLKGYVAERKGEREEMQDAHVILNDITEECRPPSSLITRVSYFAVFDGHGGIRASKFAAQNLHQNLIRKFPKGDVISVEKTVKRCLLDTFKHTDEEFLKQASSQKPAWKDGSTATCVLAVDNILYIANLGDSRAILCRYNEESQKHAALSLSKEHNPTQYEERMRIQKAGGNVRDGRVLGVLEVSRSIGDGQYKRCGVTSVPDIRRCQLTPNDRFILLACDGLFKVFTPEEAVNFILSCLEDEKIQTREGKSAADARYEAACNRLANKAVQRGSADNVTVMVVRIGH [ILKAP]    49.3
MSSNECFKCGRSGHWARECPTGGGRGRGMRSRGRGGFTSDRGFQFVSSSLPDICYRCGESGHLAKDCDLQEDACYNCGRGGHIAKDCKEPKREREQCCYNCGKPGHLARDCDHADEQKCYSCGEFGHIQKDCTKVKCYRCGETGHVAINCSKTSEVNCYRCGESGHLARECTIEATA [CNBP]    57.6
MSNKEGSGGFRKRKHDNFPHNQRREGKDVNSSSPVMLAFKSFQQELDARHDKYERLVKLSRDITVESKRTIFLLHRITSAPDMEDILTESEIKLDGVRQKIFQVAQELSGEDMHQFHRAITTGLQEYVEAVSFQHFIKTRSLISMDEINKQLIFTTEDNGKENKTPSSDAQDKQFGTWRLRVTPVDYLLGVADLTGELMRMCINSVGNGDIDTPFEVSQFLRQVYDGFSFIGNTGPYEVSKKLYTLKQSLAKVENACYALKVRGSEIPKHMLADVFSVKTEMIDQEEGIS [TSNAX]    54.7

Let's switch to this sequence now.
Task: Which measured melting temperature value corresponds to MIEQQKRKGPELPLVPVKRQRHELLLGAGSGPGAGQQQATPGALLQAGPPRCSSLQAPIMLLSGHEGEVYCCKFHPNGSTLASAGFDRLILLWNVYGDCDNYATLKGHSGAVMELHYNTDGSMLFSASTDKTVAVWDSETGERVKRLKGHTSFVNSCYPARRGPQLVCTGSDDGTVKLWDIRKKAAIQTFQNTYQVLAVTFNDTSDQIISGGIDNDIKVWDLRQNKLTYTMRGHADSVTGLSLSSEGSYLLSNAMDNTVRVWDVRPFAPKERCVKIFQGNVHNFEKNLLRCSWSPDGSKIAAGSADRFVYVWDTTSRRILYKLPGHAGSINEVAFHPDEPIIISASSDKRLYMGEIQ [SNRNP40] ?
Result: 49.9

----------
test system: HeLa Kyoto; experiment: solubility change mitosis vs G1/S (difference of NP-40 vs SDS log2 ratios) (log2 ratio difference); higher = more soluble in mitosis
Parameter threshold = 0.03. Response is Condition met when solubility change mitosis (log2) meets or exceeds it, else Condition not met.

Solved cases (2 shown):
MQGSTRRMGVMTDVHRRFLQLLMTHGVLEEWDVKRLQTHCYKVHDRNATVDKLEDFINNINSVLESLYIEIKRGVTEDDGRPIYALVNLATTSISKMATDFAENELDLFRKALELIIDSETGFASSTNILNLVDQLKGKKMRKKEAEQVLQKFVQNKWLIEKEGEFTLHGRAILEMEQYIRETYPDAVKICNICHSLLIQGQSCETCGIRMHLPCVAKYFQSNAEPRCPHCNDYWPHEIPKVFDPEKERESGVLKSNKKSLRSRQH [NSMCE1]    Condition not met
MVKLTAELIEQAAQYTNAVRDRELDLRGYKIPVIENLGATLDQFDAIDFSDNEIRKLDGFPLLRRLKTLLVNNNRICRIGEGLDQALPCLTELILTNNSLVELGDLDPLASLKSLTYLSILRNPVTNKKHYRLYVIYKVPQVRVLDFQKVKLKERQEAEKMFKGKRGAQLAKDIARRSKTFNPGAGLPTDKKKGGPSPGDVEAIKNAIANASTLAEVERLKGLLQSGQIPGRERRSGPTDDGEEEMEEDTVTNGS [SNRPA1]    Condition met

Task: Please indicate if the recorded solubility change mitosis (log2) for MAAFGRQVLDWHRLIPLTWACMARQTPHLGEQRRTTASLLRKLTTASNGGVIEELSCVRSNNYVQEPECRRNLVQCLLEKQGTPVVQGSLELERVMSSLLDMGFSNAHINELLSVRRGASLQQLLDIISEFILLGLNPEPVCVVLKKSPQLLKLPIMQMRKRSSYLQKLGLGEGKLKRVLYCCPEIFTMRQQDINDTVRLLKEKCLFTVQQVTKILHSCPSVLREDLGQLEYKFQYAYFRMGIKHPDIVKSEYLQYSLTKIKQRHIYLERLGRYQTPDKKGQTQIPNPLLKDILRVSEAEFLARTACTSVEEFQVFKKLLAREEEESESSTSDDKRASLDEDEDDDDEEDNDEDDNDEDDDDEDDDEAEDNDEDEDDDEEE [MTERF4] meets or exceeds 0.03.
Result: Condition not met

Task: One more sequence: MAPNIYLVRQRISRLGQRMSGFQINLNPLKEPLGFIKVLEWIASIFAFATCGGFKGQTEIQVNCPPAVTENKTVTATFGYPFRLNEASFQPPPGVNICDVNWKDYVLIGDYSSSAQFYVTFAVFVFLYCIAALLLYVGYTSLYLDSRKLPMIDFVVTLVATFLWLVSTSAWAKALTDIKIATGHNIIDELPPCKKKAVLCYFGSVTSMGSLNVSVIFGFLNMILWGGNAWFVYKETSLHSPSNTSAPHSQGGIPPPTGI [SYPL1]
Result: Condition met

Task: One more sequence: MKLLTHNLLSSHVRGVGSRGFPLRLQATEVRICPVEFNPNFVARMIPKVEWSAFLEAADNLRLIQVPKGPVEGYEENEEFLRTMHHLLLEVEVIEGTLQCPESGRMFPISRGIPNMLLSEEETES [TRMT112]
Result: Condition met

Task: One more sequence: MKDVDNLKSIKEEWVCETGSDNQPLGNNQQSNCEYFVDSLFEEAQKVSSKCVSPAEQKKQVDVNIKLWKNGFTVNDDFRSYSDGASQQFLNSIKKGELPSELQGIFDKEEVDVKVEDKKNEICLSTKPVFQPFSGQGHRLGSATPKIVSKAKNIEVENKNNLSAVPLNNLEPITNIQIWLANGKRIVQKFNITHRVSHIKDFIEKYQGSQRSPPFSLATALPVLRLLDETLTLEEADLQNAVIIQRLQKTASFRELSEH [UBXN2A]
Result: Condition not met
